# assay notes: soluble on expression in E. coli; label from the status in PepcDB or PDB records

residue codes	soluble on expression in E. coli
MGSDKIHHHHHHMLSVSSLDGEWNITEVDGQKISTERMPFIGFDVAQKRIYGNSGCNRMMGSFEADSLKPGTLKFGQIGSTRMMCPDMKTEQMVLGALDKVTSFQTVSDKPDVITLCNQDGQPLMTLEKKAAPEVSLSDLSGEWVIELVNGKKIVGTAEVTPFIGFNLDESRIYGNVGCNTINGALMQEDGKPNSLRFDNVATTMMMCPDMETETIVLNALNETKSFSMKDDKVYLLGENGNELLVLKKQ	not soluble
MLKPLGDRVVIELVQAEEKTASGIVLPDTAKEKPQEGKVIAVGTGRVLENGERVALEVAAGDLIIFSKYAGTEVKYEGTDYLILRESDILAVIG	not soluble
MTTVSEQANFTFSPEEVARFERDGYIGPVKIFEPEEMTRRWNIIRRQLLDRSLAIYPDSNGKANISNYDRHLDIDLLAEHIMRPEIVDRVGSLIGRNLLCWRSEFFPKYQGDEGTDWHQAATFAHATGKPQIIWPSDEGRPAFIGTITVWTAFTHSTEQNGCLQLMPGTHTSMNYDESKGMDYDADAINQREKDGIKRGFFGYDYRSLQKDPDWKPDESQAYPMVLKPGEAVIFWSNTMHASLPHTGSKTDYRMGFAARYVPTQVQVYPGTENLTEYGDGINLEKYGAVLTSGVDEYGHNRIARTSQRGYEFVPRQIPS	soluble
MATKKCINGHQYDSSIYGDNCPFCPSSHSTRVLDDDTTTGKTQVLGGNMNAETDTIDLGKSGQNNPGGATVIRHVNPTGGTGMASDNRRLVGLLVSYDQNPMGEVYKIYEGRNVIGRAATSDIPIPGDSNMSSQHLLILYREAEGIFWAADQNSSNGTYINGTFVGDRVQLYTNDVIVLGATKMIFLAIPQ	not soluble
MKMNPRCTYCLLSRVHFQSKLSTDDEDLISRTIHECLGVMNKHYSPEAVSSRVATKVHRKCYEVLRDSDPYEVTKKLINQAALKVLPAAKEKIYENSPDDGELFKRAVLASVIANYFDFGIMGFDASEDKFEAAFLKYYEQGLDVDDTPEMLGLLQDVVYIADNCGEILFDAIVFDVIKKLGGNITLVVRGGPILTDVTLEEIKEFEIDKKVDRVMTTGSNAVGVLVEEAPAELLDAMKNATLIISKGMANYETLSEHNFGPIAYMLLTKCECVAEDLGLETGLSVAKLMNFPLEHHHHHH	soluble
MPGTKQVNVGSLKVGQYVMIDGVPCEIVDISVSKPGKHGGAKARVVGIGIFEKVKKEFVAPTSSKVEVPIIDRRKGQVLAIMGDMVQIMDLQTYETLELPIPEGIEGLEPGGEVEYIEAVGQYKITRVIGGK	soluble
GETQPESAAFTAPSTDNPIRINFNENPLGMSPKAQAAARDAVVKANRYAKNEILMLGNKLAAHHQVEAPSILLTAGSSEGIRAAIEAYASLEAQLVIPELTYGDGEHFAKIAGMKVTKVKMLDNWAFDIEGLKAAVAAYSGPSIVYLVNPNNPTGTITPADVIEPWIASKPANTMFIVDEAYAEFVNDPRFRSISPMITQGAENIILLKTFSKIHAMAGMRVGYAVAHPTVIALMGRYVAGEKINFSGVDAALASMNDSAFITYSKKSNDVSRQILLKALEDLKLPYLPSEGNFVFHQLVVPLKDYQTHMADAGVLIGRAFPPADNWCRISLGTPQEMQWVADTMREFRKKSWI	soluble
